Cited source: patent US3983105A

Measured MIC values are reported for all entries that follow.
Tested on: Proteus morganii
Run description: MIC, test tube serial dilution, Proteus morganii
Format: cell-based
Test parameters: strain 932; 24 hours, 37°C
The reply should be a number in U/ml, with the unit left off.

Consider the reported MIC for these molecules:
molecule=CN(C)C(=O)N1CCN(C(=O)N[C@@H](C(=O)N[C@@H]2C(=O)N3[C@@H]2SC(C)(C)[C@@H]3C(=O)O)c2ccccc2)C1=O numeric_result=64
molecule="CC1(C)S[C@@H]2[C@H](NC(=O)C(C(=O)O)c3ccccc3)C(=O)N2[C@H]1C(=O)O (stereo partly shown) [Carbenicillin, reference compound]" numeric_result=6
molecule=CC1(C)S[C@@H]2[C@H](NC(=O)[C@H](NC(=O)NC(=O)NS(C)(=O)=O)c3ccccc3)C(=O)N2[C@H]1C(=O)O numeric_result=64

Query molecule follows.
IN: Answer with the recorded MIC for the molecule listed here: `CNC(=O)N1CCN(C(=O)N[C@@H](C(=O)N[C@@H]2C(=O)N3[C@@H]2SC(C)(C)[C@@H]3C(=O)O)c2ccccc2)C1=O`
OUT: 1.6

---

System: Escherichia coli
Run description: MIC, test tube serial dilution, Escherichia coli
Format: cell-based
Test parameters: strain A 261; 24 hours, 37°C
Measured attribute: MIC

Consider the reported MIC for these molecules:
molecule="CC1(C)S[C@@H]2[C@H](NC(=O)[C@H](N)c3ccccc3)C(=O)N2[C@H]1C(=O)O [Ampicillin, α-aminobenzylpenicillin, reference compound]" target_or_test_system="Escherichia coli" result="> 400 U/ml"
molecule="CC(C)(C)C(=O)N1CCN(C(=O)N[C@@H](C(=O)N[C@@H]2C(=O)N3[C@@H]2SC(C)(C)[C@@H]3C(=O)O)c2ccccc2)C1=O [Example 21]" target_or_test_system="Escherichia coli" result="256 U/ml"
molecule="CC1(C)S[C@@H]2[C@H](NC(=O)[C@H](NC(=O)N3CCN(C(=O)NS(C)(=O)=O)C3=O)c3ccccc3)C(=O)N2[C@H]1C(=O)O [Example 30]" target_or_test_system="Escherichia coli" result="> 256 U/ml"

IN: Answer with the recorded MIC for the molecule listed here: Cc1ccc(S(=O)(=O)NC2=NCCN2C(=O)N[C@@H](C(=O)N[C@@H]2C(=O)N3[C@@H]2SC(C)(C)[C@@H]3C(=O)O)c2ccccc2)cc1 [Example 25]
OUT: > 256 U/ml

IN: Answer with the recorded MIC for the molecule listed here: CC1(C)S[C@@H]2[C@H](NC(=O)[C@H](NC(=O)N3CCN(C(N)=O)C3=O)c3ccccc3)C(=O)N2[C@H]1C(=O)O [Example 5]
OUT: 256 U/ml

---

Measured log10(MIC) values are reported for all entries that follow.
Tested on: Staphylococcus aureus
Run description: MIC, test tube serial dilution, Staphylococcus aureus
Type: cell-based
Test parameters: strain 1756 (BRL 1 756); 24 hours, 37°C
Please be aware that the numbers have been log10-transformed from MIC in U/ml.

Consider the reported log10(MIC) for these compounds:
compound="CC(C)OC(=O)N1CCN(C(=O)N[C@@H](C(=O)N[C@@H]2C(=O)N3[C@@H]2SC(C)(C)[C@@H]3C(=O)O)c2ccccc2)C1=O [Example 7]" numeric_result=2.11
compound="CC1(C)S[C@@H]2[C@H](NC(=O)[C@H](NC(=O)N3CCN(C(=O)c4ccccc4)C3=O)c3ccccc3)C(=O)N2[C@H]1C(=O)O [Example 12]" numeric_result=2.41
compound="CC1(C)S[C@@H]2[C@H](NC(=O)[C@H](NC(=O)NC(=O)NS(C)(=O)=O)c3ccccc3)C(=O)N2[C@H]1C(=O)O [Example 31]" numeric_result=1.81
compound="Cc1ccc(S(=O)(=O)NC2=NCCN2C(=O)N[C@@H](C(=O)N[C@@H]2C(=O)N3[C@@H]2SC(C)(C)[C@@H]3C(=O)O)c2ccccc2)cc1 [Example 25]" numeric_result=1.81
compound="CCCC(=O)N1CCN(C(=O)N[C@@H](C(=O)N[C@@H]2C(=O)N3[C@@H]2SC(C)(C)[C@@H]3C(=O)O)c2ccccc2)C1=O [Example 14]" numeric_result=2.11
compound="CCC(=O)N1CCN(C(=O)N[C@@H](C(=O)N[C@@H]2C(=O)N3[C@@H]2SC(C)(C)[C@@H]3C(=O)O)c2ccccc2)C1=O [Example 26]" numeric_result=1.81
compound="CC1(C)S[C@@H]2[C@H](NC(=O)[C@H](NC(=O)N3CCN(C(=O)NS(C)(=O)=O)C3=O)c3ccccc3)C(=O)N2[C@H]1C(=O)O [Example 30]" numeric_result=2.41
compound="CN(C)C(=O)N1CCN(C(=O)N[C@@H](C(=O)N[C@@H]2C(=O)N3[C@@H]2SC(C)(C)[C@@H]3C(=O)O)c2ccccc2)C1=O [Example 6]" numeric_result=1.81
compound="CCOC(=O)NS(=O)(=O)N1CCN(C(=O)N[C@@H](C(=O)N[C@@H]2C(=O)N3[C@@H]2SC(C)(C)[C@@H]3C(=O)O)c2ccccc2)C1=O [Example 22]" numeric_result=2.11
compound="CC1(C)S[C@@H]2[C@H](NC(=O)[C@H](NC(=O)N3CCN(C(=O)N4CCCC4)C3=O)c3ccccc3)C(=O)N2[C@H]1C(=O)O [Example 8]" numeric_result=2.11

IN: Answer with the recorded log10(MIC) for the compound listed here: CC1(C)S[C@@H]2[C@H](NC(=O)[C@H](NC(=O)N3CCN(S(=O)(=O)c4ccccc4)C3=O)c3ccccc3)C(=O)N2[C@H]1C(=O)O [Example 27]
OUT: 1.81

IN: Answer with the recorded log10(MIC) for the compound listed here: CCS(=O)(=O)N1CCN(C(=O)N[C@@H](C(=O)N[C@@H]2C(=O)N3[C@@H]2SC(C)(C)[C@@H]3C(=O)O)c2ccccc2)C1=O [Example 24]
OUT: 1.51

IN: Answer with the recorded log10(MIC) for the compound listed here: CC1(C)S[C@@H]2[C@H](NC(=O)[C@H](NC(=O)N3CCN(C=O)C3=O)c3ccccc3)C(=O)N2[C@H]1C(=O)O [Example 20]
OUT: 2.11
